Test system: VEGFR2
Construct: gene KDR
measurementParameters: concentration: 1 μM, replicates: in singlicate; n = 1
resultType: %Inh (%)

{"compound": "Cc1cn2c(=O)cc(N3CCOCC3)nc2n1Cc1cccc(Cl)c1Cl", "resultType": "%Inh", "observedValue": 8}
{"compound": "Cc1cccc(Cn2ccn3c(=O)cc(N4CCOCC4)nc23)c1", "resultType": "%Inh", "observedValue": 0}
{"compound": "O=C(Nc1n[nH]c2cc(-c3cccc(F)c3)ccc12)C1CC1", "resultType": "%Inh", "observedValue": 12}
{"compound": "COc1cc(Nc2nccc(N3CCC(NC(=O)c4cccc(NC(C)=O)c4)C3)n2)cc(OC)c1OC (centres unmarked)", "resultType": "%Inh", "observedValue": 10}
{"compound": "NCC(NC(=O)c1cc(-c2cn[nH]c2)c(-c2ccnc3[nH]ccc23)s1)c1ccccc1.O=C(O)C(F)(F)F.O=C(O)C(F)(F)F (centres unmarked)", "resultType": "%Inh", "observedValue": 18}
{"compound": "COC(=O)Nc1nc2cc(Oc3ccc(NC(=O)Nc4cc(F)ccc4F)cc3)ccc2[nH]1.Cl", "resultType": "%Inh", "observedValue": 68}
{"compound": "COc1cc2c(cc1OC[C@@H](O)CO)ncc1c3ccc(C#N)cc3[nH]c21", "resultType": "%Inh", "observedValue": 19}
{"compound": "c1ccc(-c2n[nH]cc2-c2ccnc3ccccc23)nc1", "resultType": "%Inh", "observedValue": 12}

---

Tested on: YANK3
Construct: gene STK32C
measurementParameters: concentration: 1 μM, replicates: in singlicate; n = 1
Items are presented alongside their recorded %Inh.
resultType: %Inh (%)

{"molecule": "Cc1cccc(-c2nc(Nc3ccc4ncsc4c3)c3ccccc3n2)n1 [GW867588]", "observedValue": 29}
{"molecule": "COc1ccc(CNC(=O)NC2CCN(c3ccnc(Nc4ccc(OC)cc4)n3)C2)cc1 (stereo not drawn) [GSK1379727]", "observedValue": 8}
{"molecule": "Cl.Nc1ncnc2occ(-c3ccc(NC(=O)Nc4cc(C(F)(F)F)ccc4F)cc3)c12 [SB-707548]", "observedValue": 7}
{"molecule": "O=C1Cc2cc(Nc3nc(NCc4cccc(S(=O)(=O)C(F)(F)F)c4)ncc3C(F)(F)F)ccc2N1", "observedValue": 0}
{"molecule": "O=c1cc(N2CCOCC2)nc2n(Cc3cccc(Cl)c3Cl)c(C3CC3)nn12 [GSK2358994]", "observedValue": 0}
{"molecule": "Cc1nnc(-c2ccc3ncc(-c4ccc(S(C)=O)cc4)n3c2)o1 (stereo not drawn)", "observedValue": 5}
{"molecule": "O=C1NC(=O)C(N2CCc3ccccc32)=C1c1cccc(Cl)c1 [SB-408010]", "observedValue": 17}
{"molecule": "C[C@@H](Oc1cc(-n2cnc3ccc(NC(=O)NC(C)(C)C)cc32)sc1C(N)=O)c1ccccc1Cl [GSK346294]", "observedValue": 12}
{"molecule": "COc1ccc(Nc2nccc(N3CCC(NC(=O)Nc4cc(C)ccc4C)C3)n2)cc1 (stereo not drawn) [GSK1379741]", "observedValue": 8}

---

Tested on: MAST1
measurementParameters: concentration: 1 μM, replicates: in singlicate; n = 1
// NB: equality with 2% counts as Not satisfied; only %Inh strictly below is Satisfied

{"molecule": "Cc1cccc(-c2nc(-c3ccc(S(C)(=O)=O)cc3)sc2-c2ccncc2)c1", "categoryLabel": "Not satisfied"}
{"molecule": "Cc1cn2c(=O)cc(N3CCOCC3)nc2n1Cc1cccc(Cl)c1Cl [GSK2334006]", "categoryLabel": "Satisfied"}
{"molecule": "COc1ccc(Nc2nccc(N3CCC(NC(=O)Nc4cccc(C(C)=O)c4)C3)n2)cc1 (stereo not drawn) [GSK1379731]", "categoryLabel": "Satisfied"}
{"molecule": "O=C(Nc1n[nH]c2cc(-c3cccc(F)c3)ccc12)C1CC1 [SB-735464]", "categoryLabel": "Not satisfied"}
{"molecule": "O=C1Cc2cc(Nc3nc(NCc4cccc(S(=O)(=O)C(F)(F)F)c4)ncc3C(F)(F)F)ccc2N1", "categoryLabel": "Satisfied"}
{"molecule": "CCc1ccnc(/C=C/c2n[nH]c3cc(Sc4ccccc4C(=O)NC)ccc23)c1", "categoryLabel": "Satisfied"}
{"molecule": "CN(C1=C(c2ccccc2)C(=O)NC1=O)c1ccccc1 [SB-334860]", "categoryLabel": "Satisfied"}
{"molecule": "c1ccc(-c2cc(-c3c[nH]nc3-c3ccccn3)ccn2)cc1 [GW576604]", "categoryLabel": "Not satisfied"}

---

System: ROCK2;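 note: kd values determined as follow-up on hits from a single-replicate KINOMEscan panel screen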

{"compoundSmiles": "CNc1ncnc2[nH]ncc12", "Kd / nM": 330}

---

Items are presented alongside their recorded %Inh.
System: PIKFYVE
measurementParameters: concentration: 1 μM, replicates: in singlicate; n = 1

{"compound": "COc1cc2ncn(-c3cc(OCc4sccc4Cl)c(C(N)=O)s3)c2cc1OC", "%Inh (%)": 0}
{"compound": "O=c1cc(N2CCOCC2)nc2n(Cc3cccc4ccccc34)ccn12", "%Inh (%)": 0}
{"compound": "COCCNC(=O)c1ccc(-c2cc(C(=O)NC3CC3)cc(F)c2C)cc1", "%Inh (%)": 43}
{"compound": "Cn1ccc2ncnc(Oc3ccc(NC(=O)Nc4ccncc4)c(Cl)c3)c21", "%Inh (%)": 8}
{"compound": "CCCCCc1nc2c(N)ncnc2n1CCCCC", "%Inh (%)": 0}
{"compound": "O=c1cc(N2CCOCC2)nc2n(Cc3cccc(Cl)c3Cl)c(C3CC3)nn12", "%Inh (%)": 0}
{"compound": "O=c1cc(N2CCOCC2)nc2n(Cc3cccc(F)c3)ccn12", "%Inh (%)": 0}
{"compound": "NCCNS(=O)(=O)c1ccc(-c2ccnc3[nH]ccc23)cc1", "%Inh (%)": 0}
{"compound": "COc1ccc(CNC(=O)NC2CCN(c3ccnc(Nc4ccc(OC)cc4)n3)C2)cc1 (stereo not drawn)", "%Inh (%)": 29}

---

Items are presented alongside their recorded %Inh.
Test system: JNK2
Construct: gene MAPK9
measurementParameters: concentration: 1 μM, replicates: in singlicate; n = 1

{"compoundSmiles": "Cc1cn2c(=O)cc(N3CCOCC3)nc2n1Cc1cccc(Cl)c1Cl", "%Inh, %": 16}
{"compoundSmiles": "CNc1ncnc2[nH]ncc12", "%Inh, %": 1}
{"compoundSmiles": "Fc1ccc(-c2ncn(CCCN3CCOCC3)c2-c2cccnc2)cc1", "%Inh, %": 0}
{"compoundSmiles": "Cc1nnc(-c2ccc(C)c(-c3ccc(C(=O)Nc4ccc(NS(C)(=O)=O)cc4)cc3)c2)o1", "%Inh, %": 0}
{"compoundSmiles": "CSc1ccc(-c2cc3ncnc(SCC(=O)O)c3s2)cc1", "%Inh, %": 10}
{"compoundSmiles": "c1ccc(-c2n[nH]cc2-c2ccnc3ccccc23)nc1", "%Inh, %": 33}
{"compoundSmiles": "CC(=O)Nc1ccc(COc2ccc(Nc3ccnc4cc(-c5ccccn5)ccc34)cc2)cc1.Cl", "%Inh, %": 17}
{"compoundSmiles": "CCc1nc(-c2cccc(C)c2)c(-c2ccnc(NCc3ccccc3)c2)s1", "%Inh, %": 8}
{"compoundSmiles": "Cl.Cl.Cl.Fc1ccc(-c2ncn(C3CCNCC3)c2-c2ccnc(Nc3ccccc3)n2)cc1", "%Inh, %": 100}
{"compoundSmiles": "Cc1ccc(NC(=O)c2ccnc(N3CCN(C)CC3)c2)cc1-c1ccc(C(=O)NCC2CC2)cc1", "%Inh, %": 0}
{"compoundSmiles": "COc1ccc(S(=O)(=O)NC2CCN(c3cc(C)nc(Nc4cccc(C#N)c4)n3)CC2)cc1.O=C(O)C(F)(F)F", "%Inh, %": 28}
{"compoundSmiles": "COc1ccc(COc2cc(-n3cnc4ccccc43)sc2C(N)=O)cc1", "%Inh, %": 33}
{"compoundSmiles": "CC(C)(C)n1cnc2c(N)ncnc21", "%Inh, %": 0}
{"compoundSmiles": "Nc1nccc(-c2c(-c3ccc(F)cc3)ncn2C2CCN(CC(F)(F)F)CC2)n1", "%Inh, %": 91.3}
{"compoundSmiles": "CCCCCc1nc2c(N)ncnc2n1CCCCC", "%Inh, %": 0}
{"compoundSmiles": "O=c1cc(N2CCOCC2)nc2n(Cc3cccc(C(F)(F)F)c3)ccn12", "%Inh, %": 10}
{"compoundSmiles": "CCn1cnc2c(N)ncnc21", "%Inh, %": 0}
{"compoundSmiles": "C[C@@H](Oc1cc(-n2cnc3ccc(NC(=O)NC(C)(C)C)cc32)sc1C(N)=O)c1ccccc1Cl", "%Inh, %": 6}

---

Test system: IKK-alpha
Construct: gene CHUK
measurementParameters: concentration: 1 μM, replicates: in singlicate; n = 1

{"compound": "Cc1cccc(-c2nc(-c3ccc(S(C)(=O)=O)cc3)sc2-c2ccncc2)c1", "%Inh, %": 0}
{"compound": "N#Cc1c(N2CCOCC2)sc(-c2ccn[nH]2)c1-c1ccc(Cl)cc1", "%Inh, %": 10}
{"compound": "Cc1ccc(NC(=O)c2ccnc(N3CCN(C)CC3)c2)cc1-c1ccc(C(=O)NCC2CC2)cc1 [GW775604]", "%Inh, %": 0}
{"compound": "O=c1cc(N2CCOCC2)nc2n(Cc3cccc(C(F)(F)F)c3)ccn12 [GSK2297543]", "%Inh, %": 0}
{"compound": "NS(=O)(=O)CCc1cccc(Nc2nccc(-c3c(-c4cccc(NC(=O)c5c(F)cccc5F)c4)nn4ccccc34)n2)c1 [GSK336735]", "%Inh, %": 0}
{"compound": "CCc1ccnc(/C=C/c2n[nH]c3cc(Sc4ccccc4C(=O)NC)ccc23)c1", "%Inh, %": 8}
{"compound": "c1ccc(-c2cc(-c3c[nH]nc3-c3ccccn3)ccn2)cc1 [GW576604]", "%Inh, %": 0}
{"compound": "O=C(c1ccc(-c2cc(-c3c[nH]nc3-c3ccccn3)ccn2)cc1)N1CCOCC1 [GW812171]", "%Inh, %": 46}
